procedure-details: Luminescence Cell-Based Dose Response HTS to Identify Inhibitors of 5'UTR Stem-Loop Driven Prion Protein mRNA Translation in H4 Neuroglioblastoma Cells. [Related pubchem assays: 1827 (Project Summary), 1813 (Primary HTS)]
Type: functional
The source made the active and inactive calls.
Exercise: state measured EC50 for each of the compounds provided.

In: Given the compound Cc1c(C(=O)NN2CCCCC2)nn(-c2ccc(Cl)cc2Cl)c1-c1ccc(I)cc1 , what is its reported EC50?
Out: > 120 µM (not active)

In: Item: Cn1ncc2c(ON=C(N)c3ccc(C(C)(C)C)cc3)ncnc21
Out: 10.1 µM (active)

In: Record: O=C(/C=C/c1ccccc1)Nc1ccc2c(c1)OCCO2
Out: 10.4 µM (inconclusive)

In: # iterate: Cn1c(=O)[nH]c(=O)c2c1nc(N1CCCCCC1)n2Cc1cccc2ccccc12
Out: > 120 µM (not active)

In: // next record CCOc1ccccc1N1CCN(C(=S)NC(=O)C23CC4CC(CC(C4)C2)C3)CC1
Out: 24.5 µM (active)

###

Please provide measured AC50 for the entries that follow.
experimental-target: Cytochrome P450 1A2 (Homo sapiens, UniProt P05177);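 note: PubChem cytochrome P450 panel assay, CYP1A2 panel member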
Sequence (P05177 whole entry): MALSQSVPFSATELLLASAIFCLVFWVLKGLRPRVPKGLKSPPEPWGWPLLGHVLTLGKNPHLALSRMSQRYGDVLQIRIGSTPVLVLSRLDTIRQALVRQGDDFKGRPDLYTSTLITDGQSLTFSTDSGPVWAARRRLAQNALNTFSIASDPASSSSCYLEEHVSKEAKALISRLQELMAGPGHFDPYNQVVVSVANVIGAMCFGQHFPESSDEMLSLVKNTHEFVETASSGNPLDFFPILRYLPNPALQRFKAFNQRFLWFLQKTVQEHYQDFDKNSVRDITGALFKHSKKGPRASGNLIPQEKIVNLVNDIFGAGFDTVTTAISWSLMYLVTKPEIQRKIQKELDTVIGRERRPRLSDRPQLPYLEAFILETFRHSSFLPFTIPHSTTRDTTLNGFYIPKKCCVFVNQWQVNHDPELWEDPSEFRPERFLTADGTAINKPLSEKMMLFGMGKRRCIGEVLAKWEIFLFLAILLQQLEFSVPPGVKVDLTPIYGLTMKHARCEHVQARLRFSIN

In: Any idea what AC50 was measured for COc1ccccc1N1CCN(c2nc3c(C)cccn3c(=O)c2C=O)CC1 ?
Out: 12.6 µM (inconclusive)

In: Would you mind doing CC1=C(C(=O)N2CCCCCC2)C2(CCC(C)CC2)OC1=O (configuration not stated) as well?
Out: 0.0158 µM (inconclusive)

In: Next: Cc1ccc(C)c(OCCCC(C)(C)C(=O)O)c1
Out: 12.6 µM (inconclusive)

In: For COC(=O)C1CCC(C)(C(=O)Nc2ccccc2)C1(C)C (configuration not stated) then?
Out: 15.8 µM (inconclusive)

In: Same question for O=C(c1csnn1)N1CCC[C@@]2(CCN(c3ncccn3)C2)C1 please.
Out: 12.6 µM (inconclusive)

In: Likewise for CCC/C=C(\CCC)C(NS(C)(=O)=O)c1ccccc1 (configuration not stated) ?
Out: 25.1 µM (inconclusive)

In: What would you report for O=C(c1ccccc1-c1nc(-c2ccccc2)no1)N1CCOCC1 ?
Out: 39.8 µM (inconclusive)

In: Cool, now COc1ccccc1N1CCN(CCN2C(=O)c3ccccc3C(C)(C)C2=O)CC1
Out: 39.8 µM (inconclusive)

In: Then O=C(O)CCC(=O)Nc1ccc2ccccc2c1 ?
Out: 0.0631 µM (inconclusive)

In: Try this compound next: CSCC[C@H](NC(=O)c1nn(C)c(=O)c2ccccc12)c1nc2ccccc2[nH]1
Out: 17.8 µM (inconclusive)

In: Another compound to check: COCCNc1ncnc2ccc(-c3ccccc3CN(C)C)cc12
Out: 25.1 µM (inconclusive)

In: Similarly, CCCCCC1CCC(C(=O)NN=C(S)NCC)CC1 (configuration not stated) ?
Out: 12.6 µM (inconclusive)

###

Please respond with reported EC50 for every item in the list.
experimental-target: Streptokinase A (Streptococcus pyogenes serotype M1)
Sequence (P10520 whole entry): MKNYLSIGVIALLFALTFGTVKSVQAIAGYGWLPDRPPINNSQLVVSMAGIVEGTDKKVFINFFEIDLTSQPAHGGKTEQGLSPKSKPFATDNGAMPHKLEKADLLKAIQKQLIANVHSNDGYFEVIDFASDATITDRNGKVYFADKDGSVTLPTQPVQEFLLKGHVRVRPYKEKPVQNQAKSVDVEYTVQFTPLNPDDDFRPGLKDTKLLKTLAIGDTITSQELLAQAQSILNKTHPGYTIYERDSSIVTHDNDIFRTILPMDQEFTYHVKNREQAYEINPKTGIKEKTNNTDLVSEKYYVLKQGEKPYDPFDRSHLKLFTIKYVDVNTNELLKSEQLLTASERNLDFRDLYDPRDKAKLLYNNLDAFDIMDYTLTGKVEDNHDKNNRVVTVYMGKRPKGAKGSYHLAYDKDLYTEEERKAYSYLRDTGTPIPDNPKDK
procedure-details: viability-normalized secreted streptokinase activity reduction – plasminogen activation absorbance, OD405, dose response (AID 1914);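 note: secreted streptokinase activity via plasminogen activation per viability signal from cell pellet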
Type: functional, Streptococcus pyogenes M1 GAS
Active and inactive are the calls of the source.

In: State the recorded EC50 for this entry: COc1cc(OC)cc(C(=O)Nc2nc(CC(=O)NCc3ccccc3OC)cs2)c1
Out: > 150 µM (not active)

In: What about this molecule? O=C(N/N=C(\c1ccccc1)c1cccnc1)c1cccc(F)c1
Out: > 150 µM (not active)

In: Next: CCCNC(=O)c1ccc(N2CCC3(CC2)CC(c2ccccc2)=NO3)c(NC(=O)c2ccco2)c1
Out: > 150 µM (not active)

In: Now consider Cc1cc(C)c2nc(-c3ccncc3)cc(C(=O)N3CCN(Cc4ccccc4Cl)CC3)c2c1 and answer again.
Out: 10.3 µM (active)

In: Repeat for the following molecule: COc1ccc(C(=O)/C(C#N)=N/Nc2cccc([N+](=O)[O-])c2)cc1
Out: > 150 µM (not active)

In: And CC1CN(Cc2nc3c(c(=O)[nH]c(=O)n3C)n2CCCc2ccccc2)CC(C)O1 (stereo unspecified) ?
Out: > 150 µM (not active)

In: Please do the same for COc1ccc(Cl)cc1NC(=O)CN1CCC(n2nnc3cc(C)ccc32)CC1 as well.
Out: 26.4 µM (active)

In: What about CSCC[C@H](NC(=O)c1nn(C)c(=O)c2ccccc12)c1nc2ccccc2[nH]1 ?
Out: > 150 µM (not active)

In: Field entry: Cc1ccc(-n2cc3c(-c4cccc(Br)c4)nnc(C)c3n2)cc1
Out: 94.1 µM (active)

In: Same lookup for COc1ccc(N2CCN(C(=O)c3cc(C)oc3C)CC2)cc1 , please.
Out: > 150 µM (not active)

In: Also check O=C(COc1cccc(Oc2ccccc2)c1)Nc1ccc(SC(F)F)cc1
Out: 17.5 µM (active)

###

experimental-target: Long-chain-fatty-acid--AMP ligase FadD28 (Mycobacterium tuberculosis, UniProt P9WQ59)
Sequence (P9WQ59 whole entry): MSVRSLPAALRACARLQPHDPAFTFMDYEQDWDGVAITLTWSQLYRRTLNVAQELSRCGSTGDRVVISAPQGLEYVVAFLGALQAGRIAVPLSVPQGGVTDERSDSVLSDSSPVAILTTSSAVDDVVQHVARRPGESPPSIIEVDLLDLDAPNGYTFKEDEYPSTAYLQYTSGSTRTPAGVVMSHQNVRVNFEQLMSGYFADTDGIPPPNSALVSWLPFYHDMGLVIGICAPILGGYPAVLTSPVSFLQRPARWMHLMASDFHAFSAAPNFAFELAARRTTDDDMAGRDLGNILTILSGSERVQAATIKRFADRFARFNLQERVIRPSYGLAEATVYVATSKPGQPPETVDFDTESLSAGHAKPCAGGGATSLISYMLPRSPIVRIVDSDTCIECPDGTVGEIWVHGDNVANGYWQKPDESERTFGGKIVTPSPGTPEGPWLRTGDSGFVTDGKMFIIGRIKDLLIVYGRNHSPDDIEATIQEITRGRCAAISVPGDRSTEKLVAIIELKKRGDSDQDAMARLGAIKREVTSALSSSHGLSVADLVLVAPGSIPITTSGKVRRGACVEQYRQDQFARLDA
procedure-details: Fluorescence polarization aasay to screen for inhibitors that compete for the binding of FadD28 to a bisubstrate Measured in Biochemical System Using Plate Reader - 2147-01_Inhibitor_Dose_CherryPick_Activity.
Format: functional, Mycobacterium tuberculosis H37Rv
The source made the active and inactive calls.
Entry note: the call must match one of y for active, n for inactive

In: Identify the outcome logged in this assay for the molecule shown: Cc1ccc(OCC(=O)N/N=C\c2c(C)n(C)c3ccccc23)c([N+](=O)[O-])c1
Out: y

In: Let us now turn to O=C(COC(=O)c1cccc(S(=O)(=O)N2CCCCCC2)c1)Nc1ccccc1
Out: n

In: Entry to check: CC(C)n1c(O)c(N=Nc2ccc(Cl)c(C(=O)O)c2)c2ccccc21
Out: y

In: Now give it for Cc1ccccc1NC(=O)CN1C(=O)N/C(=C\c2cccn2-c2cccc(C(=O)O)c2)C1=O too.
Out: y

In: # iterate: COc1ccccc1-n1c(C)c(C(=O)O)c2cc(OC)c3ccccc3c21
Out: y

In: Would you kindly repeat that for O=C(O)c1cc(N/N=C/c2ccc(-c3ccccc3)cc2)ccc1Cl ?
Out: y

###

experimental-target: Corticotropin-releasing factor receptor 2/Corticotropin-releasing factor-binding protein (Homo sapiens, UniProt P24387+Q13324)
Sequence (Q13324 whole entry): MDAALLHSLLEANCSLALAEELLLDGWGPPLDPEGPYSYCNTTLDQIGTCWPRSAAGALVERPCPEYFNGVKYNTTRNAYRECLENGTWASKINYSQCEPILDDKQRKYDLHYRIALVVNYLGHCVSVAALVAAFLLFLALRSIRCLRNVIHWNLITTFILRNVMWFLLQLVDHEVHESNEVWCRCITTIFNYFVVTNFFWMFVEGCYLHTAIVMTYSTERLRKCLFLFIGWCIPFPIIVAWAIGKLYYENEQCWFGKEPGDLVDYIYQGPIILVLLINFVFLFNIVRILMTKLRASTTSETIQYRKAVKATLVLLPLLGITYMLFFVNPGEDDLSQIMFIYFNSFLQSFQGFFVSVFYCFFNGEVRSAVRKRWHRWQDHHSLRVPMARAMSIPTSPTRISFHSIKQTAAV
Sequence (P24387 whole entry): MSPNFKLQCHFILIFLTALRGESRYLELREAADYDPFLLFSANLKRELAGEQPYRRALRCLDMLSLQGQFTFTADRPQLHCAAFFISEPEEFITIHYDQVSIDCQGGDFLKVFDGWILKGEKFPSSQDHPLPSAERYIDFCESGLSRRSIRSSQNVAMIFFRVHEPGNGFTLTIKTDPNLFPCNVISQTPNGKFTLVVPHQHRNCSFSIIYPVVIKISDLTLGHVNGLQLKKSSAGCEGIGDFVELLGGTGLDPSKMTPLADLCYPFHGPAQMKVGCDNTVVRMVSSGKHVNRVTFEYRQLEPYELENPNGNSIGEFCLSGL
procedure-details: Dose Response confirmation of uHTS hits for small molecule antagonists of the CRF-binding protein and CRF-R2 receptor complex.
Assay type: functional
condition: read-out: IC50_Mean
Calls of active or inactive are those of the source.
Parameter call: string, one of 1 (yes) (active), 0 (no) (inactive)

In: How was COc1ccc(S(=O)(=O)Nc2nc3ccccc3nc2NCc2ccc3c(c2)OCO3)cc1 classified in this test?
Out: 0 (no)

In: And the next one, Cc1cccc2c(CCNC(=O)c3ccc([N+](=O)[O-])cc3)c[nH]c12 ?
Out: 0 (no)

In: Cool, now CN1CC(=O)N(CC(=O)N2CCC(Cc3ccccc3)CC2)C1=O
Out: 0 (no)

In: N#Cc1c(O)nc(SCc2cccc(Cl)c2)nc1-c1ccccc1 ?
Out: 1 (yes)

###

experimental-target: Cytochrome P450 3A4 (Homo sapiens);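 note: CYP3A4 tested as one member of a cytochrome P450 panel screen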
Sequence (P08684 whole entry): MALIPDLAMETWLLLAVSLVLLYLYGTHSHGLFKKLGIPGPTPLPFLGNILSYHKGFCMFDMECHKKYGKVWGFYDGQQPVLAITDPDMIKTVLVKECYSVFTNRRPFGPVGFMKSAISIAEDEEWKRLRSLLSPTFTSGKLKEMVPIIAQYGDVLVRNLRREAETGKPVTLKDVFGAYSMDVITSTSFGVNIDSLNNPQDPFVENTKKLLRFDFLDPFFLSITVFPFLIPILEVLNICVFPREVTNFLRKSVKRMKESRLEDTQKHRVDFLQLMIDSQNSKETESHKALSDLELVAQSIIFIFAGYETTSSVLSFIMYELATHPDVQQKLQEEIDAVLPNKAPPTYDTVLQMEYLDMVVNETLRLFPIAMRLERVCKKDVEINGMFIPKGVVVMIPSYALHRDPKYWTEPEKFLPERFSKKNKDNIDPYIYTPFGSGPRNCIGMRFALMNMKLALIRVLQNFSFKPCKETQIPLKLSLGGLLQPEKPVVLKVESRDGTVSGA
parameter: AC50

In: Bench note: what AC50 did COc1ccccc1N1CCN(CCN2C(=O)c3ccccc3C(C)(C)C2=O)CC1 show?
Out: 15.8 µM (inconclusive)

In: Same lookup for CCOc1c2ccc(C(=O)NCc3ccccc3OC)cc2nn1CC , please.
Out: 15.8 µM (inconclusive)

In: Moving on to the next compound: COCCn1c(=O)c(-c2cc(F)cc(F)c2)nc2cnc(Oc3ccccc3)nc21
Out: 20 µM (inconclusive)

In: Lookup CC(C)NC(=O)N1CCCC2(CCN(C(=O)c3ccco3)CC2)C1
Out: 25.1 µM (inconclusive)

In: Another compound to look at: CSCC[C@H](NC(=O)c1nn(C)c(=O)c2ccccc12)c1nc2ccccc2[nH]1
Out: 12.6 µM (inconclusive)

In: // query: CCCC[C@@H]1C[C@H]1C(NC(=O)c1ccco1)c1ccccc1 (stereo partly drawn)
Out: 20 µM (inconclusive)

In: Another compound to check: COCCNc1ncnc2ccc(-c3ccccc3CN(C)C)cc12
Out: 31.6 µM (inconclusive)

In: Do the same for CCC/C=C(\CCC)C(NS(C)(=O)=O)c1ccccc1 (stereo not drawn) please
Out: 31.6 µM (inconclusive)
